B1: Hairpin Ribozyme (parent)
chain: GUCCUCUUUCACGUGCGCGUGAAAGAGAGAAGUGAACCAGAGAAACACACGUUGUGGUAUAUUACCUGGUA

Variants of: B1
Assay: self-cleavage, relative activity (ratio to wild type); higher = more cleavage; co-transcriptional
The reader will find reported self-cleavage values listed item by item below.
Give a plain numeric answer without units written out.

// solved cases for self-cleavage follow
{"sequence.input": "GUCAUCUUUCACGGGCGCGUGAAAGAGAGAAGUGAACCAGAGAAACACACGUUGUGGUAUAUUACCUGGUA [C4A U14G]", "endpoint": "self-cleavage", "experimental.result": 0.0473}
{"sequence.input": "GUCCUCUUUCACGUGCGCGUGAAAGAGAGAAGUGUACCAAAGAAACACACGUUGUGGUAUAUUACCUGGUA [A35U G40A]", "endpoint": "self-cleavage", "experimental.result": 0.154}

**Query** # input variant: GUCCUCUUUCACGUGCGCGUGAAAGAGAGAAGUGAACCAGAGCAACACAAGUUGUGGUAUAUUACCUGGUA [A43C C50A] ; wanted: its self-cleavage
**Result** 0.162

**Query** Now this one: GUCCUCUUUCACGUGCGCGUGAAAGAGAGAAGUGAACCAGAGAAAGACACGUUGUGGUAGAUUACCUGGUA [C46G U60G]
**Result** 0.151

**Query** And for GUCCUCUUUCACGUGCGCGUGAAUGAGAGAAGUGAACCAGAGAAACACACGUUGUGGUAUGUUACCUGGUA [A24U A61G] ?
**Result** 0.231

**Query** Next record, please: GUCCUCUUUCACGUGCGCGUGAAAGAGAGAAGUGAACCAGAGAAACACCCGUUGUGGUAUAUUACGUGGUA [A49C C66G]
**Result** 0.301

**Query** Please give the result for GUCAUCUUUCACGUGCGCGUGAAAGAGAGAAGUGAACCCGAGAAACACACGUUGUGGUAUAUUACCUGGUA [C4A A39C] too.
**Result** 0.166

**Query** Same for GUCCUCUUUCACGUGCGCGUGAAAGAGAGAAGUGAACCAGAGAAACACACGUUGUGGUAUAUUACCAGGCA [U67A U70C]
**Result** 0.247

**Query** Let us now turn to AUCCUCUUUCACGUGCGCGUGAAAGAGAGAAGUGAACCAGAGAAACACACGUUGUGGUAUAUUACCGGGUA [G1A U67G]
**Result** 0.116

Values compiled from the RNAGym collection of RNA variant scans (doi:10.7554/elife.80360).
